target.system: TBK1 (Homo sapiens)
Construct: His-tag; made in house; host or cells: Sf9 insect cells
Sequence (Q9UHD2 whole entry): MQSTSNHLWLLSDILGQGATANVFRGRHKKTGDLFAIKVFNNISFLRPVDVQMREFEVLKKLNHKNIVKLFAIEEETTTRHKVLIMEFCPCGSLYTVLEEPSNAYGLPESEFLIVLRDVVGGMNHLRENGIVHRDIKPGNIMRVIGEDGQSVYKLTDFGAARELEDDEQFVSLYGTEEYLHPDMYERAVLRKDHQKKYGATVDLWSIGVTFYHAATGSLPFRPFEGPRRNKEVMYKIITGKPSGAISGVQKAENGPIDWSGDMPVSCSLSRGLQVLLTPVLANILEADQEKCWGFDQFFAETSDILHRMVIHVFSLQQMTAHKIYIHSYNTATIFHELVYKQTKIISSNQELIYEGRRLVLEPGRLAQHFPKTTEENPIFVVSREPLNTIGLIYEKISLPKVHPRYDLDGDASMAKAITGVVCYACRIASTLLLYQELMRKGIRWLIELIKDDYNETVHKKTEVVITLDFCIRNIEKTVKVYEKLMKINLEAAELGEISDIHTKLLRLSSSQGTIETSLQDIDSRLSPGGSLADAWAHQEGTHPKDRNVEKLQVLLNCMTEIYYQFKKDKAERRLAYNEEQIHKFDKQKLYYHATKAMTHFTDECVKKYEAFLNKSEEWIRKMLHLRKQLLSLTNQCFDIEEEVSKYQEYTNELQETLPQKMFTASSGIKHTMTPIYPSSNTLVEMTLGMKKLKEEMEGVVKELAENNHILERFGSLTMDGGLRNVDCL
test.method.notes: In-vitro TBK1 kinase assay ([γ33]ATP filter-plate)
Type: biochemical
applied.conditions: text bins; read-out: IC50 for inhibition of the kinase activity of TBK1
Item-by-item account of IC50

Below: 6 compounds and their reported IC50.
compound	IC50
N#Cc1cc(-c2ccnc(Nc3ccc(N4CCOCC4)c(F)c3)n2)ccc1OC1CCOCC1 [Example 24]	< 0.01 µM
COc1cc(Nc2nc(-c3ccc(OC4CCOCC4)c(C#N)c3)c3nc[nH]c3n2)ccc1N1CCOCC1 [compound 633]	< 0.01 µM
N#Cc1cc(-c2ccnc(Nc3ccc(N4CCOCC4)cc3)n2)ccc1NS(=O)(=O)CC(F)(F)F [Example 243]	0.01 to 0.1 µM
N#Cc1cc(-c2ccnc(Nc3ccc(OCCCN4CCOCC4)cc3)n2)ccc1OC1CCOCC1 [compound 527]	< 0.01 µM
COc1cc(Nc2nccc(-c3ccc(OC4CCOCC4)c(C#N)c3)n2)ccc1S(=O)(=O)N(C)CCCN(C)C [compound 397]	< 0.01 µM
N#Cc1cc(-c2ccnc(Nc3ccc(F)c(OCCCN4CCOCC4)c3)n2)ccc1OC1CCOCC1 [compound 519]	< 0.01 µM

Let us examine a further case.
Give IC50; test system TBK1 (Homo sapiens); compound N#Cc1cc(-c2ccnc(Nc3cccc(NC(=O)N4CCOCC4)c3)n2)ccc1OC1CCOCC1 [compound 646]
< 0.01 µM
